Would you kindly list switch fluorescence ratio for each of these sequences?
System: ATP;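 note: ATP exposure 15 min at 22 °C before imaging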
Assay: switch fluorescence ratio, 500 uM ATP over buffer (Cy3 cluster intensity, sum of 5 cycles each) (fold (ratio)); higher = stronger signal-on switching upon ATP binding; sequences stand for … in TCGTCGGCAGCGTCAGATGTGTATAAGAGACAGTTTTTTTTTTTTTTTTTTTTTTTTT…TC
Settings: aptamer strand: ATP DNA aptamer (quencher-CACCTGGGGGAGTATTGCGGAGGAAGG + anchor), 100 nM annealed; ATP concentration: 500 uM
Lab note: record just the number, no unit beside it.

Exercise: Query for ATP: what switch fluorescence ratio does the record show for "CCGGGGGAAC" ?
Solution: 1.14

Exercise: Query for ATP: what switch fluorescence ratio does the record show for "TTGCCTCGGG" ?
Solution: 1.04

Exercise: Query for ATP: what switch fluorescence ratio does the record show for "GGTTATAGTT" ?
Solution: 1.01

Exercise: Query for ATP: what switch fluorescence ratio does the record show for "CGTAAAATCG" ?
Solution: 0.995

Exercise: Query for ATP: what switch fluorescence ratio does the record show for "GCCAGGCCGA" ?
Solution: 0.979

Exercise: Query for ATP: what switch fluorescence ratio does the record show for "AAGCTGTTAC" ?
Solution: 1.6

Exercise: Query for ATP: what switch fluorescence ratio does the record show for "GTTGTTGTGA" ?
Solution: 0.976

Exercise: Query for ATP: what switch fluorescence ratio does the record show for "CTGTTTTTTG" ?
Solution: 0.976

Exercise: Query for ATP: what switch fluorescence ratio does the record show for "GGGGGGATTC" ?
Solution: 1.01

Exercise: Query for ATP: what switch fluorescence ratio does the record show for "TTGACGTCGG" ?
Solution: 0.985

Exercise: Query for ATP: what switch fluorescence ratio does the record show for "AAGTACGGTG" ?
Solution: 1.19

Data provenance: the supplement of paper PMC10126150
